Parameter ASMS ratio (%) n = 1: see the listing below.
target: Bcl-2 protein (Recombinant Human Bcl-2 Protein) (Homo sapiens, UniProt P10415); construct: purchased Novus NBP2-34889; assay: Binding evaluation of mixture library compounds to Bcl-2 using AS-MS (affinity selection mass spectrometry); details: AS-MS, mixture library, Bcl-2; replicate n = 1; ASMS Ratio(%)=(A−C)/B×100
Sequence (P10415 whole entry): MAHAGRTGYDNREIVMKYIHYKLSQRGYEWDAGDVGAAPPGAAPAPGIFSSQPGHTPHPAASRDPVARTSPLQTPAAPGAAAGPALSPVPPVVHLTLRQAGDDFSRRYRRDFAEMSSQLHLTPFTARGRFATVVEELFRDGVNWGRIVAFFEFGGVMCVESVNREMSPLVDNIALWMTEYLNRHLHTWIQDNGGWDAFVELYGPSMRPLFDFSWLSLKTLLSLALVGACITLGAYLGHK

[
  {
    "COMPOUND": "CCOc1cccc(-c2ccc(CN3CCN(c4ccc(C(=O)NS(=O)(=O)CC56CC7CC(CC(C7)C5)C6)cc4)CC3)cc2F)c1 [B2A051-01]",
    "ASMS ratio (%) n = 1": "−0.3"
  },
  {
    "COMPOUND": "CCOc1cncc(-c2csc(CN3CCN(c4ccc(C(=O)NS(=O)(=O)CC56CC7CC(CC(C7)C5)C6)cc4)CC3)c2)c1 [B2A068-01]",
    "ASMS ratio (%) n = 1": 0.0
  },
  {
    "COMPOUND": "CCOc1cccc(-c2cc(C(=O)N3CCN(c4ccc(C(=O)NS(C)(=O)=O)cc4)CC3)cc(C(C)(C)C)c2)c1 [B2I037-01]",
    "ASMS ratio (%) n = 1": 0.0
  },
  {
    "COMPOUND": "CCOc1cccc(-c2ccc(CN3CCN(c4ccc(C(=O)NS(=O)(=O)c5ccc(NCCSc6ccccc6)c([N+](=O)[O-])c5)cc4)CC3)c(CC)c2)c1 [B2Q049-01]",
    "ASMS ratio (%) n = 1": "−2.4"
  },
  {
    "COMPOUND": "CCOc1cncc(-c2ccc(CN3CCN(c4ccc(C(=O)NS(=O)(=O)CC56CC7CC(CC(C7)C5)C6)cc4)CC3)c(OC)c2)c1 [B2A054-01]",
    "ASMS ratio (%) n = 1": 17.5
  },
  {
    "COMPOUND": "CCOc1cccc(-c2ccc(C(=O)N3CCN(c4ccc(C(=O)NS(=O)(=O)CC56CC7CC(CC(C7)C5)C6)cc4)CC3)c3ccccc23)c1 [B2A035-01]",
    "ASMS ratio (%) n = 1": 6.2
  },
  {
    "COMPOUND": "CCOc1cccc(-c2cc(C(=O)N3CCN(c4ccc(C(=O)NS(=O)(=O)c5ccc(NCCSc6ccccc6)c([N+](=O)[O-])c5)nn4)CC3)cc(C(F)(F)F)c2)c1 [B2Q017-01]",
    "ASMS ratio (%) n = 1": 12.8
  },
  {
    "COMPOUND": "CCOc1cncc(-c2cc(CN3CCN(c4ccc(C(=O)N(CC)CC)nn4)CC3)cc(OC(C)C)c2)c1 [B4J084-01]",
    "ASMS ratio (%) n = 1": 0.0
  },
  {
    "COMPOUND": "CCOc1cncc(-c2ccccc2CN2CCN(c3ccc(C(=O)NS(=O)(=O)c4ccc(NCCSc5ccccc5)c([N+](=O)[O-])c4)cc3)CC2)c1 [B2Q046-01]",
    "ASMS ratio (%) n = 1": 20.3
  },
  {
    "COMPOUND": "CCOc1cccc(-c2csc(CN3CCN(c4ccc(C(=O)N(CC)CC)cc4)CC3)c2)c1 [B4J067-01]",
    "ASMS ratio (%) n = 1": "−11.0"
  },
  {
    "COMPOUND": "CCOc1cccc(-c2ccc(C(=O)N3CCN(c4ccc(C(=O)NS(C)(=O)=O)cc4)CC3)cc2C)c1 [B2I025-01]",
    "ASMS ratio (%) n = 1": 0.0
  },
  {
    "COMPOUND": "CCOc1cccc(-c2ccc(C(=O)N3CCN(c4ccc(C(=O)NS(C)(=O)=O)nn4)CC3)c3ccccc23)c1 [B2I013-01]",
    "ASMS ratio (%) n = 1": 0.0
  },
  {
    "COMPOUND": "CCOc1cncc(-c2ccc(C(=O)N3CCN(c4ccc(C(=O)NS(C)(=O)=O)cc4)CC3)cc2F)c1 [B2I028-01]",
    "ASMS ratio (%) n = 1": 0.0
  }
]
